# test.details: Absorption characteristics: transmission spectrum of near-infrared absorbing layer of NIR filter (UV-visible spectrophotometer)
# Type: physicochemical
# reported.conditions: transparent resin polycarbonate SP3810, nd(B) 1.63, film thickness 2.8 μm
property.label: Is value (nd(B)×(λa-λc))

compound: CCCCC(CC)C(=O)Nc1cc2c(cc1C1=C([O-])C(=c3cc4c(cc3NC(=O)C(CC)CCCC)=[N+](C(C)C)C(C)C4(C)C)C1=O)C(C)(C)C(C)N2C(C)C (stereo not shown)
property.label: Is value (nd(B)×(λa-λc))
value.reported: 104.6
--
compound: CC(=O)Nc1cc2c(cc1C1=C([O-])C(=c3cc4c(cc3NC(C)=O)=[N+](C)C(C)C4(C)C)C1=O)C(C)(C)C(C)N2C (stereo not shown) [Example A11-20, reference compound]
property.label: Is value (nd(B)×(λa-λc))
value.reported: 124.2
--
compound: CCCCCCCC(=O)Nc1cc2c(cc1C1=C([O-])C(=c3cc4c(cc3NC(=O)CCCCCCC)=[N+](C)C(C)C4(C)C)C1=O)C(C)(C)C(C)N2C (stereo not shown) [Example A11-24, reference compound]
property.label: Is value (nd(B)×(λa-λc))
value.reported: 119.3
--
compound: CC(CCC(C(=O)Nc1cc2c(cc1C1=C([O-])C(=c3cc4c(cc3NC(=O)C(CCC(C)CC(C)(C)C)C(C)CC(C)(C)C)=[N+](C)C(C)C4(C)C)C1=O)C(C)(C)C(C)N2C)C(C)CC(C)(C)C)CC(C)(C)C (stereo not shown)
property.label: Is value (nd(B)×(λa-λc))
value.reported: 111.2
--
compound: Cc1ccc(C)c(OCCCC(C)(C)C(=O)Nc2cc3c(cc2C2=C([O-])C(=c4cc5c(cc4NC(=O)C(C)(C)CCCOc4cc(C)ccc4C)=[N+](C)C(C)C5(C)C)C2=O)C(C)(C)C(C)N3C)c1 (stereo not shown)
property.label: Is value (nd(B)×(λa-λc))
value.reported: 112.8
--
compound: CCCC(CCC)C(=O)Nc1cc2c(cc1C1=C([O-])C(=c3cc4c(cc3NC(=O)C(CCC)CCC)=[N+](C)C(C)C4(C)C)C1=O)C(C)(C)C(C)N2C (stereo not shown)
property.label: Is value (nd(B)×(λa-λc))
value.reported: 112.8
--
compound: CCCCC(CC)C(=O)Nc1cc2c(cc1C1=C([O-])C(=c3cc4c(cc3NC(=O)C(CC)CCCC)=[N+](C)C(C)C4(C)C)C1=O)C(C)(C)C(C)N2C (stereo not shown)
property.label: Is value (nd(B)×(λa-λc))
value.reported: 112.8

---

# test.details: Absorption characteristics: transmission spectrum of near-infrared absorbing layer of NIR filter (UV-visible spectrophotometer)
# Format: physicochemical
# reported.conditions: transparent resin polycarbonate SP3810, nd(B) 1.63, film thickness 2.8 μm
# Protocol: Further, the transmittance of the near-infrared absorbing layer can be measured by using an ultraviolet visible light spectrophotometer. For example, when the near-infrared absorbing layer is provided on a glass substrate, the transmittance is calculated by subtracting the transmittance of only the glass substrate. […]
property.label: λc (nm)

compound: CCCCCCCCCCCC(=O)Nc1cc2c(cc1C1=C([O-])C(=c3cc4c(cc3NC(=O)CCCCCCCCCCC)=[N+](C)C(C)C4(C)C)C1=O)C(C)(C)C(C)N2C (stereo not drawn) [Example A11-25, reference compound]
value.reported: 621
//
compound: CCCC(CCC)C(=O)Nc1cc2c(cc1C1=C([O-])C(=c3cc4c(cc3NC(=O)C(CCC)CCC)=[N+](C)C(C)C4(C)C)C1=O)C(C)(C)C(C)N2C (stereo not drawn)
value.reported: 626
//
compound: CCCCCCCC(=O)Nc1cc2c(cc1C1=C([O-])C(=c3cc4c(cc3NC(=O)CCCCCCC)=[N+](C)C(C)C4(C)C)C1=O)C(C)(C)C(C)N2C (stereo not drawn) [Example A11-24, reference compound]
value.reported: 621
